Here, molecules appear alongside pKi reported for 5-hydroxytryptamine receptor 2A (Homo sapiens, UniProt P28223) in the literature.
Here pKi is given on a logarithmic scale as minus log10 of the concentration in mol/L.

Some solved entries appear below for comparison.
| Molecule | Recorded Metric | Numeric Value |
| --- | --- | --- |
| O=C(Nc1cccnc1)N1CCc2ccc(C(F)(F)F)cc21 | pKi | 6.30 |
| O=C(NC1CCc2cc(CCN3CCN(c4nsc5ccccc45)CC3)ccc21)c1ccc(F)cc1 (centres undefined) | pKi | 8.78 |
| CN(C)C[C@@H]1C[C@@H]2c3ccccc3Cc3ccccc3N2O1 | pKi | 8.60 |
| O=S(=O)(c1ccccc1)C1(CCCN2CCc3ccccc3C2)CCC1 | pKi | 7.19 |

## Input // query pKi value for entry O=C(/C=C/c1ccccc1)N(Cc1ccc(-c2ccc(CNCCc3ccccc3)cc2)cc1)Cc1cccnc1
## Output 6.10

## Input # iterate: CN1CCc2cc(NCc3ccccc3)c(O)cc2C(c2ccccc2)C1 (racemic)
## Output 8.34

## Input Now try COc1ccc(N2Cc3c(c4ccc(Cl)cc4n3C)C2=O)cc1OCCN1CCC(C)CC1 .
## Output 6.60
